src = ChEMBL document CHEMBL4251591

# Test system: Mycobacterium avium complex sp.
# methodDescription: Antimycobacterial activity against Mycobacterium avium complex CIT19/06 clinical isolate after 5 days by Alamar Blue assay
# Format: functional
# experimentalConditions: CIT19/06, 120 h
Could you mark each record met if its MIC falls strictly under 30 mg/L, and not met if it equals or exceeds it?

• COc1cc(NC(C)CCCNC(=O)NCCCC(C)Nc2cc(OC)cc3cccnc23)c2ncccc2c1 (centres undefined) = not met
• COc1cc(NC(C)CCCNC(=O)/C=C/c2cc(OC)c(OC)c(OC)c2)c2ncccc2c1 (centres undefined) = not met
• COc1cc(NC(C)CCCNC(=O)NNC(=O)Nc2ccc(O)cc2)c2ncccc2c1 (centres undefined) = not met
• COc1cc(NC(C)CCCN)c2ncccc2c1.O=P(O)(O)O.O=P(O)(O)O (centres undefined) [PRIMAQUINE PHOSPHATE] = not met
• COc1cc(NC(C)CCCNC(=O)NNC(=O)N(C)C(c2ccccc2)c2ccccc2)c2ncccc2c1 (centres undefined) = not met
• COc1cc(NC(C)CCCNC(=O)/C=C/c2cccc(C(F)(F)F)c2)c2ncccc2c1 (centres undefined) = not met
• COc1cc(NC(C)CCCNC(=O)/C=C/c2ccccc2)c2ncccc2c1 (centres undefined) = not met
• COc1cc(NC(C)CCCNC(=O)NNC(=O)NC(c2ccccc2)(c2ccccc2)c2ccccc2)c2ncccc2c1 (centres undefined) = not met
• COc1cc(NC(C)CCCNC(=O)/C=C/c2ccc3c(c2)OCO3)c2ncccc2c1 (centres undefined) = not met
• COc1cc(NC(C)CCCNC(=O)NC(c2ccccc2)c2ccc(Cl)cc2)c2ncccc2c1 (centres undefined) = not met
• COc1cc(NC(C)CCCNC(=O)NNC(=O)NCCCO)c2ncccc2c1 (centres undefined) = not met
• COc1cc(NC(C)CCCNC(=O)/C=C/c2ccc(Cl)cc2)c2ncccc2c1 (centres undefined) = not met
• COc1cc(NC(C)CCCNC(=O)/C=C/c2cc(C(F)(F)F)cc(C(F)(F)F)c2)c2ncccc2c1 (centres undefined) = not met
• COc1cc(NC(C)CCCNC(=O)NC2CCCC2)c2ncccc2c1 (centres undefined) = not met
• COc1cc(NC(C)CCCNC(=O)N(C)C(c2ccccc2)c2ccccc2)c2ncccc2c1 (centres undefined) = not met
• COc1cc(NC(C)CCCNC(=O)Nc2ccc(Br)cc2)c2ncccc2c1 (centres undefined) = met
• COc1cc(NC(C)CCCNC(=O)NC2CCCCC2)c2ncccc2c1 (centres undefined) = not met
• COc1cc(NC(C)CCCNC(=O)Nc2cccc(C(F)(F)F)c2)c2ncccc2c1 (centres undefined) = met
• COc1cc(NC(C)CCCNC(=O)NNC(=O)NCCCC(C)Nc2cc(OC)cc3cccnc23)c2ncccc2c1 (centres undefined) = met

* * *

We begin with a simple list: items and their reported MIC.
# System: Mycobacterium avium complex sp.
# methodDescription: Antimycobacterial activity against Mycobacterium avium complex CIT19/06 clinical isolate after 5 days by Alamar Blue assay
# Type: functional
# experimentalConditions: CIT19/06, 120 h
experimentalEndpoint: MIC (µg/mL)

• COc1cc(NC(C)CCCNC(=O)NCCCO)c2ncccc2c1 (stereo not given) = 64
• COc1cc(NC(C)CCCNC(=O)NNC(=O)N(CCO)CCO)c2ncccc2c1 (stereo not given) = 256
• COc1cc(NC(C)CCCNC(=O)NNC(=O)Nc2ccc(Cl)cc2)c2ncccc2c1 (stereo not given) = 256
• COc1cc(NC(C)CCCNC(=O)Nc2ccc(O)cc2)c2ncccc2c1 (stereo not given) = 256
• COc1ccc(/C=C/C(=O)NCCCC(C)Nc2cc(OC)cc3cccnc23)cc1 (stereo not given) = 128
